Molecular target: M1 receptor (Rattus norvegicus, UniProt P08482)
Construct: rat's brain except for cerebellum was homogenized; from tissue; host or cells: rat brain except cerebellum, homogenate
Sequence (P08482 1-460): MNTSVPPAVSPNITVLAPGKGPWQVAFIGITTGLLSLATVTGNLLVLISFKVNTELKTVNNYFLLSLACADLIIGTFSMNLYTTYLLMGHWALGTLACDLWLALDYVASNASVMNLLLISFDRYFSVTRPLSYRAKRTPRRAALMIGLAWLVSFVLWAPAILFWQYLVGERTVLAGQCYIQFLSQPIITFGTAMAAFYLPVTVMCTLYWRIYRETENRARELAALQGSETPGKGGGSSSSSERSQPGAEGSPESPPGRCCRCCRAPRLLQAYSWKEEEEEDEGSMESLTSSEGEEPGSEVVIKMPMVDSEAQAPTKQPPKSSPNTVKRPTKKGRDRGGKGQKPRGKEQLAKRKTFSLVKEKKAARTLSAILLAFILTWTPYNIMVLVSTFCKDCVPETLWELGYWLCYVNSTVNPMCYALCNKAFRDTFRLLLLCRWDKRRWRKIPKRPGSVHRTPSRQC
Assay: Receptor binding activity, inhibition of [3H]pyrenzepine binding to M1
Details: 10 μM test compound, 1 nM [3H]pyrenzepine, rat's brain except cerebellum
Classify as follows. Reported inhibition at 10 µM greater than or equal to 80%: 1.0. Reported inhibition at 10 µM below: 0.0.

Inquiry: Reported inhibition at 10 µM reaches at least 80% for CN1CCC(=Cc2cccc(Oc3ccccc3)c2)C1 ?
Reply text: 0.0

Inquiry: Reported inhibition at 10 µM reaches at least 80% for C=CCN1CCC(=Cc2cccc(Oc3ccccc3)c2)C1=O ?
Reply text: 1.0

Inquiry: Reported inhibition at 10 µM reaches at least 80% for O=C1NC(N2CCCC2)CC1=Cc1cccc(Oc2ccccc2)c1 (stereo not drawn) ?
Reply text: 0.0

Inquiry: Reported inhibition at 10 µM reaches at least 80% for C(=C1CCNC1)c1cccc(Oc2ccccc2)c1 ?
Reply text: 1.0

Inquiry: Reported inhibition at 10 µM reaches at least 80% for CC(C)N1CCC(=Cc2cccc(Oc3ccccc3)c2)C1=O ?
Reply text: 0.0

Inquiry: Reported inhibition at 10 µM reaches at least 80% for NC(=O)CN1CCC(=Cc2cccc(Oc3ccccc3)c2)C1=O ?
Reply text: 1.0

Recorded values, source patent US5270339A.
